assay: Cmax in Wistar rat at 10 mg/kg, po; format: ADME, organism-based; parameters: dose 10 mg/kg, route oral; details: in vivo
quantity.name: Cmax
Please state the value followed by its unit.

// fetch Cmax given entry O=C(c1ccc(F)cc1)C1CCN(CC(O)COc2cccc3[nH]c4ccccc4c23)CC1 (stereo unspecified)
290 nM

* * *

The listing below reports EC50 for molecules tested on UniProt P13945.
Give bare numbers, in nM.

Illustrative cases are given below, each with its answer.
- molecule: "O=C(c1ccc(F)cc1)C1CCN(CC(O)COc2cccc3[nH]c4ccccc4c23)CC1 (stereo not drawn)"
  quantity.name: "EC50"
  units.text: "nM"
  meas.value: 385
- molecule: "O=C1c2cccc3cc(O)cc(c23)C(=O)N1CC1CCN(CC(O)COc2cccc3[nH]c4ccccc4c23)CC1 (stereo not drawn)"
  quantity.name: "EC50"
  units.text: "nM"
  meas.value: 234

Switching to the query record.
For the molecule C=CCc1ccccc1OCC(O)CN1CCC(CN2C(=O)c3cccc4cccc(c34)C2=O)CC1 (stereo not drawn) , give its measured EC50 value.
2400

* * *

target: Beta-1 adrenergic receptor (Homo sapiens, UniProt P08588); experiment: Antagonist activity at human adrenergic beta-1 receptor expressed in CHOK1 cells assessed as inhibition of cAMP accumulation by HTRF assay
Sequence (P08588 whole entry): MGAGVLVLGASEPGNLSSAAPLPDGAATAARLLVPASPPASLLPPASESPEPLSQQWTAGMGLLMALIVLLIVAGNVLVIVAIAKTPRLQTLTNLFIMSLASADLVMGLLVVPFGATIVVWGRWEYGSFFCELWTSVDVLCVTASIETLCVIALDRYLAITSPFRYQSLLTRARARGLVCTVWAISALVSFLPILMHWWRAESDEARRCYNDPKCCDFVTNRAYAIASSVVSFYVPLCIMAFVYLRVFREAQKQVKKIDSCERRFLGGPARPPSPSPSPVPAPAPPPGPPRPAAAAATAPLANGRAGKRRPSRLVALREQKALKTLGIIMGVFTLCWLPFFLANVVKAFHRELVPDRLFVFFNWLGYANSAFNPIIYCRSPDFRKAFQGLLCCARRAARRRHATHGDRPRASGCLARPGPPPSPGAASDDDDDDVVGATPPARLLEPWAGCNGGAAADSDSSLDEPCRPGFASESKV
quantity.name: IC50 (µM)
Numbers only, in µM.

For the compound Cc1ccc(C(C)C)c(OCC(O)CN2CCC(CN3C(=O)c4cccc5cccc(c45)C3=O)CC2)c1 (stereo unspecified) , give its reported IC50.
1.38

* * *

Answer each item with its documented Ki.
target: Beta-3 adrenergic receptor (Homo sapiens, UniProt P13945)
Sequence (P13945 whole entry): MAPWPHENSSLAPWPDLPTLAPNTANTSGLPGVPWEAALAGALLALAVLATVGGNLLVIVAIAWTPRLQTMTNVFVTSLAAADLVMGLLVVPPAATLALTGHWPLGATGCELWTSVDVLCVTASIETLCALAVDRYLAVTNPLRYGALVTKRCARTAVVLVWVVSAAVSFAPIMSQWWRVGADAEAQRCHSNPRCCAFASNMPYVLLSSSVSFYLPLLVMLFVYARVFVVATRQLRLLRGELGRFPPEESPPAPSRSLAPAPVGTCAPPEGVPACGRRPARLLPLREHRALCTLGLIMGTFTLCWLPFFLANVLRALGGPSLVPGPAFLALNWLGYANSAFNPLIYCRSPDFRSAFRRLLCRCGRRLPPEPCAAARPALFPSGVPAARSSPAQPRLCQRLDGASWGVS
Note to self: number, then unit, no commentary.

Worked examples, 2 molecules total:
- molecule: "OC(COc1cccc2[nH]c3ccccc3c12)CN1CCC(Cc2cccnc2)CC1 (stereo not given)"
  Ki: "0.072 µM"
- molecule: "COc1cc2c3c(cccc3c1)C(=O)N(CC1CCN(CC(O)COc3cccc4[nH]c5ccccc5c34)CC1)C2=O (stereo not given)"
  Ki: "0.41 µM"

Lab note: each molecule below needs its Ki filled in.
1. C=CCc1ccccc1OCC(O)CN1CCC(CN2C(=O)c3cccc4cc(O)cc(c34)C2=O)CC1 (stereo not given)
2. CC(C)c1ccccc1OCC(O)CNC1CCN(C)CC1 (stereo not given)
3. O=C1c2cccc3cccc(c23)C(=O)N1CC1CCN(CC(O)COc2cccc3[nH]c4ccccc4c23)CC1 (stereo not given)
4. C=CCc1ccccc1OCC(O)CN1CCC(N2C(=O)c3cccc4cccc(c34)C2=O)CC1 (stereo not given)
5. O=C(c1ccccc1)C1CCN(CC(O)COc2cccc3[nH]c4ccccc4c23)CC1 (stereo not given)
6. CC(C)c1ccccc1OCC(O)CN1CCN(CCN2C(=O)c3cccc4cccc(c34)C2=O)CC1 (stereo not given)
7. C=CCc1ccccc1OCC(O)CN1CCOCC1 (stereo not given)
8. C=CCc1ccccc1OCC(O)CN1CCC(CN2C(=O)c3cccc4cc(OC)cc(c34)C2=O)CC1 (stereo not given)

1: 2.2 µM; 2: 1.06 µM; 3: 0.225 µM; 4: 2.34 µM; 5: 0.23 µM; 6: 1.48 µM; 7: 4.96 µM; 8: 1.51 µM

* * *

Would you kindly list pKi for each of these compounds?
target: Beta-1 adrenergic receptor (Homo sapiens, UniProt P08588); experiment: Displacement of [125I]cyanopindolol from human adrenergic beta-1 receptor expressed in CHOK1 cells; assay type: cell-based, CHO-K1; conditions: read-out: Ki
Give bare numbers, as −log10 of the molar value.

Respectfully, I request pKi for each entry included below.
1. O=C1c2cccc3cccc(c23)C(=O)N1C1CCN(CC(O)COc2cccc3[nH]c4ccccc4c23)CC1 (stereo not given)
2. C=CCc1ccccc1OCC(O)CN1CCC(CN2C(=O)c3cccc4cc(OC)cc(c34)C2=O)CC1 (stereo not given)
3. COc1ccc(C(=O)C2CCN(CC(O)COc3cccc4[nH]c5ccccc5c34)CC2)cc1 (stereo not given)
4. C=CCc1ccccc1OCC(O)CN1CCC(CN2C(=O)c3ccccc3C2=O)CC1 (stereo not given)
5. COc1cc2c3c(cccc3c1)C(=O)N(CC1CCN(CC(O)COc3ccccc3C(C)C)CC1)C2=O (stereo not given)

1: 7.12; 2: 6.52; 3: 7.89; 4: 6.72; 5: 6.68
